Values compiled from ChEMBL document CHEMBL4689842.

Please respond with reported Growth Rate for every item in the list.
tested on: U2OS; assay: Incucyte cell viability with U2OS; type: toxicity, cell-based; details: human, 24 h, 10 µM, compound concentration 10 uM, replicate number 2, timepoint 24 hours; further: filed as whole numbers so only -1 and 0 and 1 occur
Reply with just the number.

The reported value for CN(C)CC[C@@H](c1ccc(Cl)cc1)c1ccccn1.O=C(O)/C=C\C(=O)O [DEXCHLORPHENIRAMINE MALEATE] in terms of Growth Rate is 0

The reported value for Cc1cc(C)c(N)c(C#Cc2cccc(F)c2)n1.Cl in terms of Growth Rate is 1

The reported value for O=C(Nc1cccc2c(=O)cc(-c3nnn[nH]3)oc12)c1ccc(OCCCCc2ccccc2)cc1 in terms of Growth Rate is 0

The reported value for COc1cccc(OC)c1-c1cc(C(=O)NC2(C(=O)O)C3CC4CC(C3)CC2C4)nn1-c1ccnc2cc(Cl)ccc12 (centres undefined) in terms of Growth Rate is 1

The reported value for CN(C)C(=O)c1ccc(-c2cc(C(=O)N(C)C3CCCC3)no2)cc1O in terms of Growth Rate is 0

The reported value for CNc1nc(Nc2cnn([C@H]3CCN(C4COC4)C[C@@H]3F)c2Cl)ncc1C(F)(F)F in terms of Growth Rate is 0

The reported value for O=C(NCc1ccc(F)cc1)C1CCN(S(=O)(=O)c2cc(Cl)cc(Cl)c2)CC1 in terms of Growth Rate is 1

The reported value for O=C(O)COc1cccc(CN(Cc2ccc(-n3cccn3)cc2)S(=O)(=O)c2cccnc2)c1 in terms of Growth Rate is 0

The reported value for O=C(Nc1cccnc1)c1cc(-c2ccnc(F)c2)ccc1OCc1ccccc1 in terms of Growth Rate is 1
